Biological target: Carbonic anhydrase 9 (Homo sapiens, UniProt Q16790)
Test: Inhibition of recombinant human carbonic anhydrase 9 preincubated for 6 hrs at 24 degC by stopped flow CO2 hydrase assay
assayMetric: Ki (nM)

1) N#Cc1ccc(Cn2cc(COc3ccc4c(CCl)cc(=O)oc4c3)nn2)cc1	32.7

###

Biological target: Carbonic anhydrase 9 (Homo sapiens)
Assay: Inhibition of recombinant human carbonic anhydrase 9 preincubated for 10 mins by stopped flow CO2 hydrase assay
pKi: −log10 of the molar value.
assayMetric: pKi

1. O=c1cc(CN2CCN(Cc3ccccc3)CC2)c2ccc(OCc3cccc(Cl)c3)cc2o1	5.34
2. COc1ccc(N2CCN(Cc3cc(=O)oc4cc(OCc5ccc([N+](=O)[O-])cc5)ccc34)CC2)cc1	5.58
3. COc1cccc(COc2ccc3c(CN4CCN(Cc5ccccc5)CC4)cc(=O)oc3c2)c1	5.31
4. COc1ccc(N2CCN(Cc3cc(=O)oc4cc(OCc5ccc(Br)cc5)ccc34)CC2)cc1	6.05
5. O=c1cc(CN2CCN(Cc3ccccc3)CC2)c2ccc(OCc3ccccc3[N+](=O)[O-])cc2o1	6.03
6. COc1ccc(N2CCN(Cc3cc(=O)oc4cc(OCc5ccccc5)ccc34)CC2)cc1	5.26
7. O=c1cc(CN2CCN(Cc3ccccc3)CC2)c2ccc(OCc3cc(F)ccc3F)cc2o1	5.35
8. COc1ccc(CSc2nnc(COc3ccc4c(C)cc(=O)oc4c3)o2)cc1	5.63
9. COc1ccc(N2CCN(Cc3cc(=O)oc4cc(OCc5ccccc5F)ccc34)CC2)cc1	5.41
